- Tested on: T1, huTfR Apical Domain-Avi-His (human, biotin on the Avi tag (BirA) where captured on streptavidin)
- T1 construct: also called huTfR apical Avi-His; hTfR Apical
- T1 chain: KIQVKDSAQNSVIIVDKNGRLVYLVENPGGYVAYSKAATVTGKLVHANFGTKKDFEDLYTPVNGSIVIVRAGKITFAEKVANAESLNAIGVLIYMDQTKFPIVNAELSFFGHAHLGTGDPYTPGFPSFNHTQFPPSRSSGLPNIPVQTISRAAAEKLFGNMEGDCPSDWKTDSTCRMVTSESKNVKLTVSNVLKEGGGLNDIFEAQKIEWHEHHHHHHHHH
- Assay notes: ELISA OD450, supernatant
Please provide measured ratio over irrelevant protein for the entries that follow.
State the value, then name its unit.

Can you look up the measured ratio over irrelevant protein of TfR4 (mouse hybridoma antibody) (antibody, V domains shown, mouse IgG in hybridoma supernatant) VH: QVQLQQSGAELVRPGTSVKVSCKASGYAFTNYLIEWVKQRPGQGLEWIGVINPGSGGTTYNEKFKGKATLTADKSSSTAYMQLSGLTSDDSAVYFCARRSPYFDYWGQGTTLTVSS VL: SIVMTQTPKFLLVSAGDRVTITCKASQSVSNDVAWYQQKPGQSPKLLIYYASNRYTGVPDRFTGSGYGTDFTFTISTVQAEDLAVYFCHQDYISPTFGGGTKLEIK for me?
42 fold

Proceed to TfR18 (mouse hybridoma antibody) (antibody, V domains shown, mouse IgG in hybridoma supernatant) VH: QVQLQQSGAELVRPGTSVKVSCKASGYAFTNYLIEWIKQRPGQGLEWIGVINPGNNDTTYNEMFKAKTTLTADKSSNTAYMQLSSLTSDDSAVYFCARRSPYFDYWGQGTTLTVSS VL: SIVMTQTPKFLLVSAGDRVTITCKASQSVSNDVAWYQQKPGQSPKLLIYYASNRYTGVPDRFTGSGYGTDFTFTISTVQAEDLAVYFCHQDYSSPTFGGGTKLEIK
32 fold

Where these numbers come from: patent US20250270339A1
